systemName: T1, Notch2Long (Notch2 EGF6-EGF12) (human, UniProt Q04721 219-418, biotin on the N-terminal Avi tag (enzymatic))
T1 construct: also called N2L protein; hNotch2; not shown: Avi tag, N-terminal, kept
T1 sequence (looked up): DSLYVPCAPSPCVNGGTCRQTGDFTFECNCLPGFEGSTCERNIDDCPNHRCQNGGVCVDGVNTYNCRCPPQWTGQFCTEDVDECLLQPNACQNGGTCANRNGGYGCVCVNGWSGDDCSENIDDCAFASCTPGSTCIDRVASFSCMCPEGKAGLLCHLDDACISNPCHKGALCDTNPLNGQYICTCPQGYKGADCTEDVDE
experimentNotes: ELISA
runParameters: one partner purified
measuredAttribute: s/n Ratio

In [3]: df
Out[3]:
                                     binder  recordednumber
0  GCIKSHLWCHPKLDCEAGCICEVWIQCG (designed binder) [N2L.EET31.43.18 displayed on M13 phage (p3)]            10.2
1  GCIKSHLWCPRHEKCLAGCVCEVWIRCG (designed binder) [N2L.EET31.32.29 displayed on M13 phage (p3)]             9.3
2  GCIKSHLWCDPRVSCEAGCICEVWIQCG (designed binder) [N2L.EET31.43.78 displayed on M13 phage (p3)]            10.3
3  GCIRSQLWCPSDERCLAGCVCEVWIKCG (designed binder) [N2L.EET31.32.80 displayed on M13 phage (p3)]             7.6
4  GCIKSHLWCKQDSDCEAGCICEVWIQCG (designed binder, also called N2L.31.L34.43) [N2L.EET31.43 displayed on M13 phage (p3)]             5.1
5  GCIKSHLWCPRAEKCLAGCICEVWIQCG (designed binder) [N2L.EET31.32.33 displayed on M13 phage (p3)]             9.3
6  GCGWTLRHCKQDSDCLAGCVCRPIWYCG (designed binder) [N2L.EET03.10 displayed on M13 phage]            48.4
